# Test system: MOLT-4
# Test details: Cell viability assay (MTS) in MOLT-4 cells
# Assay type: cell-based
# Condition: Homo sapiens, MOLT-4; Table 5; 48 h; read-out: MOLT-4 48 h IC50
Quantity kind: IC50 (nM)
Numeric answer only, unit nM assumed.

Some molecules with known IC50 results, for comparison:
[in] Under MOLT-4: IC50 value of Cc1ncsc1-c1ccc([C@H](C)NC(=O)[C@@H]2C[C@@H](O)CN2C(=O)[C@@H](NC(=O)CCCCC(=O)N2CCC(C3CCN(CC4(C)CCC(c5ccc(Cl)cc5)=C(CN5CCN(c6ccc(C(=O)NS(=O)(=O)c7ccc(N[C@H](CCN8C[C@H]9C[C@@H]8CO9)CSc8ccccc8)c(S(=O)(=O)C(F)(F)F)c7)cc6)CC5)C4)CC3)CC2)C(C)(C)C)cc1 (stereo partly shown) ?
[out] 1.9

[in] API: value(readout=IC50, system=MOLT-4) for record Cc1ncsc1-c1ccc([C@H](C)NC(=O)[C@@H]2C[C@@H](O)CN2C(=O)[C@@H](NC(=O)CN2CCC(CN3CCN(CC4(C)CCC(c5ccc(Cl)cc5)=C(CN5CCN(c6ccc(C(=O)NS(=O)(=O)c7ccc(N[C@H](CCN8CCOCC8)CSc8ccccc8)c(S(=O)(=O)C(F)(F)F)c7)cc6)CC5)C4)CC3)CC2)C(C)(C)C)cc1 (stereo partly shown)
[out] 12.7

[in] Please tell me: IC50 of Cc1ncsc1-c1ccc([C@H](C)NC(=O)[C@@H]2C[C@@H](O)CN2C(=O)[C@@H](NC(=O)CCCCCCC(=O)N2CCN(CC3(C)CCC(c4ccc(Cl)cc4)=C(CN4CCN(c5ccc(C(=O)NS(=O)(=O)c6ccc(N[C@H](CCN7CCC(O)CC7)CSc7ccccc7)c([N+](=O)[O-])c6)cc5)CC4)C3)CC2)C(C)(C)C)cc1 (stereo partly shown) , system MOLT-4?
[out] 55.9

[in] Form field - read-out: IC50; system: MOLT-4; submitted item: Cc1ncsc1-c1ccc([C@H](C)NC(=O)[C@@H]2C[C@@H](O)CN2C(=O)[C@@H](NC(=O)CCCCCCC(=O)N2CCN(CC3(C)CCC(c4ccc(Cl)cc4)=C(CN4CCN(c5ccc(C(=O)NS(=O)(=O)c6ccc(N[C@H](CCN7CCC7)CSc7ccccc7)c([N+](=O)[O-])c6)cc5)CC4)C3)CC2)C(C)(C)C)cc1 (stereo partly shown)
[out] 20

Continuing:
[in] Enter reported IC50 observed with MOLT-4 for Cc1ncsc1-c1ccc([C@H](C)NC(=O)[C@@H]2C[C@@H](O)CN2C(=O)[C@@H](NC(=O)CCCCCOCc2cn(CC3(C)CCC(c4ccc(Cl)cc4)=C(CN4CCN(c5ccc(C(=O)NS(=O)(=O)c6ccc(N[C@H](CCN7CCOCC7)CSc7ccccc7)c(S(=O)(=O)C(F)(F)F)c6)cc5)CC4)C3)nn2)C(C)(C)C)cc1 (stereo partly shown)
[out] 88.1

[in] Missing value: IC50, MOLT-4, entry Cc1ncsc1-c1ccc([C@H](C)NC(=O)[C@@H]2C[C@@H](O)CN2C(=O)[C@@H](NC(=O)CCCCCCC(=O)N2CCN(CC3(C)CCC(c4ccc(Cl)cc4)=C(CN4CCN(c5ccc(C(=O)NS(=O)(=O)c6ccc(N[C@H](CCN7C[C@H]8C[C@@H]7CO8)CSc7ccccc7)c([N+](=O)[O-])c6)cc5)CC4)C3)CC2)C(C)(C)C)cc1 (stereo partly shown) . Fill in?
[out] 15.2

[in] Notebook: pull reported IC50 for MOLT-4, entry CCN(CCO)CC[C@H](CSc1ccccc1)Nc1ccc(S(=O)(=O)NC(=O)c2ccc(N3CCN(CC4=C(c5ccc(Cl)cc5)CCC(C)(CN5CCN(C(=O)CCCCCCC(=O)N[C@H](C(=O)N6C[C@H](O)C[C@H]6C(=O)N[C@@H](C)c6ccc(-c7scnc7C)cc6)C(C)(C)C)CC5)C4)CC3)cc2)cc1[N+](=O)[O-] (stereo partly shown)
[out] 78.5
